# experiment description: Sensory evaluation of aqueous solution IV containing 1,5-octadien-3-one 100 ppt: off-flavor intensity and masking component intensity
# experimental setup: aqueous solution IV; 10 ppm added; average panel score
// reported Masking Component Intensity per item
// print number alone

Below, 4 compounds whose answers are already recorded.
{"compound": "C=CC(C)(O)CCC=C(C)CCC=C(C)C (centres unmarked)", "Masking Component Intensity": 3.6}
{"compound": "CC(O)CC(=O)OC1CC(C)CCC1C(C)C (centres unmarked) [menthyl 3-hydroxybutyrate]", "Masking Component Intensity": 2.6}
{"compound": "CC(C)C=C(C=O)c1ccccc1", "Masking Component Intensity": 3.0}
{"compound": "CC1CCC(C(C)C)C(OCCO)C1 (centres unmarked)", "Masking Component Intensity": 2.6}

Okay, now this compound:
Would you mind telling me what Masking Component Intensity value was observed for CC1CCC(C(C)C)C(OCC(O)CO)C1 (centres unmarked) ?
1.5
